# system-name: T1, FSTL1 (Homo sapiens, UniProt Q12841)
# T1 sequence (Q12841 21-308): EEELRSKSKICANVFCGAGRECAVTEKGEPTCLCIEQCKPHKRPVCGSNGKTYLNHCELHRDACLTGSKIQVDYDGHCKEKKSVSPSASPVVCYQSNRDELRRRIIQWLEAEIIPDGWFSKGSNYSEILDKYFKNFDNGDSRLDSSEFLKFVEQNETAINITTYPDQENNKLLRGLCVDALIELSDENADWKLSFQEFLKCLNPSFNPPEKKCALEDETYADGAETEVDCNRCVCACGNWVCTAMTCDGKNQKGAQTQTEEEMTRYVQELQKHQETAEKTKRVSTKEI
# test-name: Affinity of mouse chimeric antibodies for human FSTL1, Biacore T-200 (Example 33)
# Assay type: binding
measurement-label: affinity in an assay system using surface plasmon resonance

molecule: #13: chicken-mouse chimeric anti-FSTL1 antibody clone; variable regions SEQ ID NO: 815 (light), 817 (heavy) (antibody, V domains shown, mouse constant regions) VH: AVTLDESGGGLQTPGGGLSLVCKASGFTFSSVTMQWVRQAPGKGLEWVASICSGSSTYYGPAVKGRATISRDNGQNTVRLQLNNLRAEDTATYYCAKIVGRGRWSCTSAAYNIDAWGHGTEVIVSS VL: ASTQPSSVSANPGETVKITCSGGGNNYGWYQQKSPGSAPVTVIYNNNNRPSNIPSRFSGSKSGSTNTLTITGVQAEDEAVYYCGSYDSSSDSGIFGAGTTLTVL
reported-measurement: strong affinity

molecule: #6-55: chicken-mouse chimeric anti-FSTL1 antibody clone; variable regions SEQ ID NO: 783 (light), 785 (heavy) (antibody, V domains shown, mouse constant regions) VH: AVTLDESGGGLQTPGGALSLVCKGSGFTFTSVTMQWVRQAPGKGLEWVASVCSGSSTYYAPAVKGRATISRDNGQSTVRLQLSNLRPEDTGTYYCAKIAGRARWSCTSAAYNIDAWGHGTEVIVSS VL: ASTQPSSVSAIPGETVKITCSGGGNNYGWYQQRSPGSAPVTVIYYNDNRPSNIPSRFSGSTSGSTSTLTITGVQADDEAIYYCGSWDSNTDSGIFGAGTTLTVL
reported-measurement: strong affinity

molecule: #7-34: chicken-mouse chimeric anti-FSTL1 antibody clone; variable regions SEQ ID NO: 787 (light), 789 (heavy) (antibody, V domains shown, mouse constant regions) VH: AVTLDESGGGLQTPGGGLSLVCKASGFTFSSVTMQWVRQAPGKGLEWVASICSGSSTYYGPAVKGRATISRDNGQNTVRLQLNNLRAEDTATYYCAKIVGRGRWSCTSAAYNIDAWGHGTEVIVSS VL: ASTQPSSVSANPGETVKITCSGGGNNYGWYQQKSPGSAPVTVIYYNNNRPSNIPSRFSGSTSGSTSTLTITGVQAEDEAVYYCGSYEGSTDSGIFGAGTTLTVL
reported-measurement: strong affinity
